Assayed Target: [3H]norepinephrine re-uptake in synaptosome (Rattus norvegicus)
Construct: to give a synaptosome solution
Sequence (Q9WTR4 1-597): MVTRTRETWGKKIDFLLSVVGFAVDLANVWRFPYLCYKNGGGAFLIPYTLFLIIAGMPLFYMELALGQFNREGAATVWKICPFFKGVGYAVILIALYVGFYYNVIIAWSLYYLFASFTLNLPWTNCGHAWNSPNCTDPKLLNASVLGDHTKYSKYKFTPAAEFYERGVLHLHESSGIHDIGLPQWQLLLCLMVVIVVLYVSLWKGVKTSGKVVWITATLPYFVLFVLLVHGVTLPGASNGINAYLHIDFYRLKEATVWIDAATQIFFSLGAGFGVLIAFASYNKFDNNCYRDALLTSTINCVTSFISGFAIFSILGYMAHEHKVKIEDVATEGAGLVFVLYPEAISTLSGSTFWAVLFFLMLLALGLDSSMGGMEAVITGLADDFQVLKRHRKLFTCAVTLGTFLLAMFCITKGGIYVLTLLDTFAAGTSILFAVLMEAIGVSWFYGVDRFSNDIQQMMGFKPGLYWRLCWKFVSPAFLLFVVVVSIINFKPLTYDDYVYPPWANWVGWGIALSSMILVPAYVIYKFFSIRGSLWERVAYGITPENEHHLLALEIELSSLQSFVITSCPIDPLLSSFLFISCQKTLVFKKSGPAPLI
Experimental Protocol: Inhibition of norepinephrine reuptake in rat cerebral cortex synaptosome
Assay Context: Ki calculated from IC50 and Kd, read-out: Norepinephrine Reuptake Inhibiting Activity, Ki value
Counter-ions that a name gives are not always drawn.
Listing of entries alongside the reported Ki.
Experimental Endpoint: Ki (µM)

{"Compound": "Cc1cc2c(o1)CN(C)CC2Oc1ccc(Cl)c2ccccc12 (centres unmarked) [Example 84, hydrochloride]", "Assayed Target": "[3H]norepinephrine re-uptake in synaptosome (Rattus norvegicus)", "Experimental Endpoint": "Ki", "Measurement": 0.207}
{"Compound": "Cc1cc2c(o1)CN(C)CC2Oc1ccc(Cl)c(Cl)c1 (centres unmarked) [Example 57, hydrochloride]", "Assayed Target": "[3H]norepinephrine re-uptake in synaptosome (Rattus norvegicus)", "Experimental Endpoint": "Ki", "Measurement": 0.244}
{"Compound": "CN1CCC(Oc2cccc(Br)c2Cl)c2ccoc2C1 (centres unmarked)", "Assayed Target": "[3H]norepinephrine re-uptake in synaptosome (Rattus norvegicus)", "Experimental Endpoint": "Ki", "Measurement": 0.0275}
{"Compound": "Cc1cc2c(o1)CN(C)CCC2Oc1cccc(Br)c1Cl (centres unmarked)", "Assayed Target": "[3H]norepinephrine re-uptake in synaptosome (Rattus norvegicus)", "Experimental Endpoint": "Ki", "Measurement": 0.0215}
{"Compound": "CN1CCC(Oc2cccc(Cl)c2Cl)c2ccsc2C1 (centres unmarked) [Example 149, hydrochloride]", "Assayed Target": "[3H]norepinephrine re-uptake in synaptosome (Rattus norvegicus)", "Experimental Endpoint": "Ki", "Measurement": 0.0017}

* * *

Assayed Target: [3H]norepinephrine re-uptake in synaptosome (Rattus norvegicus)
Construct: to give a synaptosome solution
Experimental Protocol: Inhibition of norepinephrine reuptake in rat cerebral cortex synaptosome
Assay Context: Ki calculated from IC50 and Kd, read-out: Norepinephrine Reuptake Inhibiting Activity, Ki value
pKi: −log10 of the molar value. Counter-ions that a name gives are not always drawn.
Experimental Endpoint: pKi

{"Compound": "CN1CCC(Oc2ccc(Cl)c3ccccc23)c2sccc2C1 (stereo not shown) [Example 115, hydrochloride]", "Assayed Target": "[3H]norepinephrine re-uptake in synaptosome (Rattus norvegicus)", "Experimental Endpoint": "pKi", "Measurement": 7.15}
{"Compound": "Cc1cc2c(o1)CN(C)CCC2Oc1cccc2ccccc12.Cl (single isomer, unassigned; (+)) [Example 401, hydrochloride]", "Assayed Target": "[3H]norepinephrine re-uptake in synaptosome (Rattus norvegicus)", "Experimental Endpoint": "pKi", "Measurement": 8.49}
{"Compound": "CN1CCC(Oc2ccc(Cl)c(Cl)c2)c2sccc2C1 (stereo not shown) [Example 108, hydrochloride]", "Assayed Target": "[3H]norepinephrine re-uptake in synaptosome (Rattus norvegicus)", "Experimental Endpoint": "pKi", "Measurement": 7.19}
{"Compound": "CN1CCC(Oc2ccc(C(N)=O)cc2Cl)c2ccoc2C1 (stereo not shown) [Example 225, hydrochloride]", "Assayed Target": "[3H]norepinephrine re-uptake in synaptosome (Rattus norvegicus)", "Experimental Endpoint": "pKi", "Measurement": 7.93}
{"Compound": "CN1CCC(Oc2cccc(Cl)c2Cl)c2occc2C1 (stereo not shown) [Example 168]", "Assayed Target": "[3H]norepinephrine re-uptake in synaptosome (Rattus norvegicus)", "Experimental Endpoint": "pKi", "Measurement": 7.62}
{"Compound": "Cc1cc2c(s1)CN(C)CCC2Oc1cccc(Cl)c1Cl (stereo not shown) [Example 148, hydrochloride]", "Assayed Target": "[3H]norepinephrine re-uptake in synaptosome (Rattus norvegicus)", "Experimental Endpoint": "pKi", "Measurement": 8.70}
{"Compound": "CN1CCc2sccc2C(Oc2cccc3ccccc23)C1 (stereo not shown) [Example 109, hydrochloride]", "Assayed Target": "[3H]norepinephrine re-uptake in synaptosome (Rattus norvegicus)", "Experimental Endpoint": "pKi", "Measurement": 7.18}
{"Compound": "CN1CCC(Oc2cccc(Br)c2Cl)c2ccoc2C1.Cl (single isomer, unassigned; (+)) [Example 398, hydrochloride]", "Assayed Target": "[3H]norepinephrine re-uptake in synaptosome (Rattus norvegicus)", "Experimental Endpoint": "pKi", "Measurement": 8.25}
{"Compound": "Cc1cc2c(o1)CN(C)CCC2Oc1cccc2ccccc12 (stereo not shown) [Example 140]", "Assayed Target": "[3H]norepinephrine re-uptake in synaptosome (Rattus norvegicus)", "Experimental Endpoint": "pKi", "Measurement": 8.08}
{"Compound": "CN1CCC(Oc2cccc3ccccc23)c2ccoc2C1 (stereo not shown) [Example 179, hydrochloride]", "Assayed Target": "[3H]norepinephrine re-uptake in synaptosome (Rattus norvegicus)", "Experimental Endpoint": "pKi", "Measurement": 7.61}
{"Compound": "CN1Cc2occc2C(Oc2ccc(Br)c(Cl)c2)C1 (stereo not shown) [Example 66, hydrochloride]", "Assayed Target": "[3H]norepinephrine re-uptake in synaptosome (Rattus norvegicus)", "Experimental Endpoint": "pKi", "Measurement": 6.31}
{"Compound": "Cc1cc2c(s1)CN(C)CC2Oc1ccc(Br)c(Br)c1 (stereo not shown) [Example 98, hydrochloride]", "Assayed Target": "[3H]norepinephrine re-uptake in synaptosome (Rattus norvegicus)", "Experimental Endpoint": "pKi", "Measurement": 6.34}
{"Compound": "Cc1cc2c(s1)CN(C)CCC2Oc1cccc2ccccc12.Cl (stereo not shown) [Example 102, hydrochloride]", "Assayed Target": "[3H]norepinephrine re-uptake in synaptosome (Rattus norvegicus)", "Experimental Endpoint": "pKi", "Measurement": 8.40}
{"Compound": "CN1CCC(Oc2cccc(Cl)c2Cl)c2ccoc2C1.Cl (single isomer, unassigned; (+)) [Example 400, hydrochloride]", "Assayed Target": "[3H]norepinephrine re-uptake in synaptosome (Rattus norvegicus)", "Experimental Endpoint": "pKi", "Measurement": 8.62}
{"Compound": "CN1CCC(Oc2cccc3ccccc23)c2occc2C1 (stereo not shown) [Example 157]", "Assayed Target": "[3H]norepinephrine re-uptake in synaptosome (Rattus norvegicus)", "Experimental Endpoint": "pKi", "Measurement": 7.24}
{"Compound": "CCN1Cc2sccc2C(Oc2ccc(Cl)c(Cl)c2)C1 (stereo not shown) [Example 24, hydrochloride]", "Assayed Target": "[3H]norepinephrine re-uptake in synaptosome (Rattus norvegicus)", "Experimental Endpoint": "pKi", "Measurement": 6.56}
{"Compound": "Cc1cc2c(o1)CN(C)CCC2Oc1cccc(Cl)c1Cl (stereo not shown) [Example 163]", "Assayed Target": "[3H]norepinephrine re-uptake in synaptosome (Rattus norvegicus)", "Experimental Endpoint": "pKi", "Measurement": 7.92}
{"Compound": "CN1CCC(Oc2cccc(Cl)c2Cl)c2ccoc2C1 (stereo not shown) [Example 213, hydrochloride]", "Assayed Target": "[3H]norepinephrine re-uptake in synaptosome (Rattus norvegicus)", "Experimental Endpoint": "pKi", "Measurement": 8.39}
{"Compound": "CN1Cc2ccsc2C(Oc2cccc3ccccc23)C1 (stereo not shown) [Example 2]", "Assayed Target": "[3H]norepinephrine re-uptake in synaptosome (Rattus norvegicus)", "Experimental Endpoint": "pKi", "Measurement": 6.32}

* * *

Assayed Target: [3H]serotonin re-uptake in synaptosome (Rattus norvegicus)
Construct: to give a synaptosome solution
Sequence (P31652 whole entry): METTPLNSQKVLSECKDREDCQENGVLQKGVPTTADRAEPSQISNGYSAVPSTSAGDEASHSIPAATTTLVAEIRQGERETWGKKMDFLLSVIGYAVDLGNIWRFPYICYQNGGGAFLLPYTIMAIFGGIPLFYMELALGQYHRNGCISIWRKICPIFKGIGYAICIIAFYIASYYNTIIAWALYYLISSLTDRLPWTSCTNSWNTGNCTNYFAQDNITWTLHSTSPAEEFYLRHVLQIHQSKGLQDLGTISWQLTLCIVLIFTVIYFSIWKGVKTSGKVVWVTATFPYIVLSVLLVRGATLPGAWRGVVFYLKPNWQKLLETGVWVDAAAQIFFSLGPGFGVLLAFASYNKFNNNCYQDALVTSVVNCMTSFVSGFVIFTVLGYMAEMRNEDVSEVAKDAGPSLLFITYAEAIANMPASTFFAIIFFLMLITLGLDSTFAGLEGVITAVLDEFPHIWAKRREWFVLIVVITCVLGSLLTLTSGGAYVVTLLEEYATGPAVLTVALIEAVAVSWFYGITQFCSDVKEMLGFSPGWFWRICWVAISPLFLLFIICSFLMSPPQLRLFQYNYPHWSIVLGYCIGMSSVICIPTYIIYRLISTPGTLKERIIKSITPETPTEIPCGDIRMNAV
Experimental Protocol: Inhibition of serotonin reuptake in rat cerebral cortex synaptosome
Assay Context: Ki calculated from IC50 and Kd, read-out: Serotonin Reuptake Inhibiting Activity, Ki value
Where a name gives a salt, the structure may show the parent alone.
Listing of entries alongside the reported Ki.

{"Molecule": "Cc1cc2c(s1)CN(C)CCC2Oc1cccc(Cl)c1Cl (stereo not shown) [Example 148, hydrochloride]", "Unit Descriptor": "nM", "Ki": 2.1}
{"Molecule": "CN1CCc2sccc2C(Oc2cccc3ccccc23)C1 (stereo not shown) [Example 109, hydrochloride]", "Unit Descriptor": "nM", "Ki": 8.9}
{"Molecule": "Cc1cc2c(s1)CN(C)CCC2Oc1ccc(Br)c(Br)c1 (stereo not shown) [Example 135, hydrochloride]", "Unit Descriptor": "nM", "Ki": 5.4}
{"Molecule": "CN1CCC(Oc2cccc(Br)c2Cl)c2ccoc2C1 (stereo not shown)", "Unit Descriptor": "nM", "Ki": 3.1}
{"Molecule": "CN1CCC(Oc2cccc3ccccc23)c2occc2C1 (stereo not shown)", "Unit Descriptor": "nM", "Ki": 6.8}
{"Molecule": "CN1CCC(Oc2cccc(Br)c2Cl)c2ccoc2C1.Cl (single isomer, unassigned; (+)) [Example 398, hydrochloride]", "Unit Descriptor": "nM", "Ki": 1.7}
{"Molecule": "CCN1Cc2sccc2C(Oc2ccc(Cl)c(Cl)c2)C1 (stereo not shown) [Example 24, hydrochloride]", "Unit Descriptor": "nM", "Ki": 9.5}

* * *

Assayed Target: [3H]serotonin re-uptake in synaptosome (Rattus norvegicus)
Construct: to give a synaptosome solution
Experimental Protocol: Inhibition of serotonin reuptake in rat cerebral cortex synaptosome
Assay Context: Ki calculated from IC50 and Kd, read-out: Serotonin Reuptake Inhibiting Activity, Ki value
pKi: −log10 of the molar value. Counter-ions that a name gives are not always drawn.
Listing of entries alongside the reported pKi.
Experimental Endpoint: pKi

{"Compound": "CN1CCC(Oc2ccc(Cl)c3ccccc23)c2sccc2C1 (stereo not drawn) [Example 115, hydrochloride]", "Assayed Target": "[3H]serotonin re-uptake in synaptosome (Rattus norvegicus)", "Measurement": 8.92}
{"Compound": "CN1CCC(Oc2cccc(Cl)c2Cl)c2ccoc2C1.Cl (single isomer, unassigned; (+)) [Example 400, hydrochloride]", "Assayed Target": "[3H]serotonin re-uptake in synaptosome (Rattus norvegicus)", "Measurement": 9.30}
{"Compound": "Cc1cc2c(s1)CN(C)CC2Oc1ccc(Br)c(Br)c1 (stereo not drawn) [Example 98, hydrochloride]", "Assayed Target": "[3H]serotonin re-uptake in synaptosome (Rattus norvegicus)", "Measurement": 8.07}
{"Compound": "Cc1cc2c(o1)CN(C)CCC2Oc1cccc2ccccc12.Cl (single isomer, unassigned; (+)) [Example 401, hydrochloride]", "Assayed Target": "[3H]serotonin re-uptake in synaptosome (Rattus norvegicus)", "Measurement": 9.00}
{"Compound": "Cc1cc2c(o1)CN(C)CC2Oc1ccc(Cl)c2ccccc12 (stereo not drawn) [Example 84, hydrochloride]", "Assayed Target": "[3H]serotonin re-uptake in synaptosome (Rattus norvegicus)", "Measurement": 8.10}
{"Compound": "CN1CCC(Oc2ccc(Cl)c(Cl)c2)c2sccc2C1 (stereo not drawn) [Example 108, hydrochloride]", "Assayed Target": "[3H]serotonin re-uptake in synaptosome (Rattus norvegicus)", "Measurement": 8.77}
{"Compound": "Cc1cc2c(o1)CN(C)CCC2Oc1cccc(Cl)c1Cl (stereo not drawn) [Example 163]", "Assayed Target": "[3H]serotonin re-uptake in synaptosome (Rattus norvegicus)", "Measurement": 8.42}
{"Compound": "CN1CCC(Oc2ccc(C(N)=O)cc2Cl)c2ccoc2C1 (stereo not drawn) [Example 225, hydrochloride]", "Assayed Target": "[3H]serotonin re-uptake in synaptosome (Rattus norvegicus)", "Measurement": 7.74}
{"Compound": "Cc1cc2c(o1)CN(C)CCC2Oc1cccc(Br)c1Cl (stereo not drawn) [Example 200]", "Assayed Target": "[3H]serotonin re-uptake in synaptosome (Rattus norvegicus)", "Measurement": 8.77}
{"Compound": "CN1Cc2ccsc2C(Oc2cccc3ccccc23)C1 (stereo not drawn) [Example 2]", "Assayed Target": "[3H]serotonin re-uptake in synaptosome (Rattus norvegicus)", "Measurement": 7.57}
{"Compound": "CN1CCC(Oc2cccc(Cl)c2Cl)c2ccsc2C1 (stereo not drawn) [Example 149, hydrochloride]", "Assayed Target": "[3H]serotonin re-uptake in synaptosome (Rattus norvegicus)", "Measurement": 8.74}
{"Compound": "Cc1cc2c(o1)CN(C)CCC2Oc1cccc2ccccc12 (stereo not drawn) [Example 140]", "Assayed Target": "[3H]serotonin re-uptake in synaptosome (Rattus norvegicus)", "Measurement": 8.39}
{"Compound": "CN1CCC(Oc2cccc(Cl)c2Cl)c2occc2C1 (stereo not drawn) [Example 168]", "Assayed Target": "[3H]serotonin re-uptake in synaptosome (Rattus norvegicus)", "Measurement": 8.18}
{"Compound": "CN1Cc2occc2C(Oc2ccc(Br)c(Cl)c2)C1 (stereo not drawn) [Example 66, hydrochloride]", "Assayed Target": "[3H]serotonin re-uptake in synaptosome (Rattus norvegicus)", "Measurement": 8.41}
{"Compound": "Cc1cc2c(o1)CN(C)CC2Oc1ccc(Cl)c(Cl)c1 (stereo not drawn) [Example 57, hydrochloride]", "Assayed Target": "[3H]serotonin re-uptake in synaptosome (Rattus norvegicus)", "Measurement": 7.85}
